The reported numbers originate from patent US20080181886A1.

assay.target: human BAFF (human, UniProt Q9Y275 82-285, limits assumed)
Sequence (Q9Y275 82-285 limits assumed): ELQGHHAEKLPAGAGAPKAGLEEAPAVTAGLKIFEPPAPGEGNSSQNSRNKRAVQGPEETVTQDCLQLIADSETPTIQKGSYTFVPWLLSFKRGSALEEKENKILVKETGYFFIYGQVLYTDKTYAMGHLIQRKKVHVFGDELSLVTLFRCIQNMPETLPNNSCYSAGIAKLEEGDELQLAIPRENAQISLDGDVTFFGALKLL
experiment.description: NNS library, phage display;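 further: ligand versus display occurrence-to-degeneracy ratio and higher means enriched by binding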
assay.metric: F' BAFF
Lab note: record the figure alone, no unit after it.

Problem: Given the binder SLSCRKEQGKFYDHLLTDCISCASICGQHPKQCAYFCENKLR (receptor, phage library variant, format as m9) [TACI_d2 R84T] , what is its reported F' BAFF?
Solution: 3

Problem: Given the binder SLSCRKEQGKFYDHLLVDCISCASICGQHPKQCAYFCENKLR (receptor, phage library variant, format as m9) [TACI_d2 R84V] , what is its reported F' BAFF?
Solution: 2

Problem: Given the binder SLSCRKEQGKGYDHLLRDCISCASICGQHPKQCAYFCENKLR (receptor, phage library variant, format as m9) [TACI_d2 F78G] , what is its reported F' BAFF?
Solution: 0

Problem: Given the binder SLSCRKEQGKFYDHLLFDCISCASICGQHPKQCAYFCENKLR (receptor, phage library variant, format as m9) [TACI_d2 R84F] , what is its reported F' BAFF?
Solution: 7

Problem: Given the binder SLSCRKEQGKFYDHLLRDCISCASMCGQHPKQCAYFCENKLR (receptor, phage library variant, format as m9) [TACI_d2 I92M] , what is its reported F' BAFF?
Solution: 0

Problem: Given the binder SLSCRKEQGKFYDHLLCDCISCASICGQHPKQCAYFCENKLR (receptor, phage library variant, format as m9) [TACI_d2 R84C] , what is its reported F' BAFF?
Solution: 0
